Where do these numbers come from? They come from PubChem BioAssay (NCATS).

Target Of Assay: Nucleoprotein (Lymphocytic choriomeningitis virus (strain Armstrong)) (UniProt P09992)
Sequence (P09992 whole entry, looked up): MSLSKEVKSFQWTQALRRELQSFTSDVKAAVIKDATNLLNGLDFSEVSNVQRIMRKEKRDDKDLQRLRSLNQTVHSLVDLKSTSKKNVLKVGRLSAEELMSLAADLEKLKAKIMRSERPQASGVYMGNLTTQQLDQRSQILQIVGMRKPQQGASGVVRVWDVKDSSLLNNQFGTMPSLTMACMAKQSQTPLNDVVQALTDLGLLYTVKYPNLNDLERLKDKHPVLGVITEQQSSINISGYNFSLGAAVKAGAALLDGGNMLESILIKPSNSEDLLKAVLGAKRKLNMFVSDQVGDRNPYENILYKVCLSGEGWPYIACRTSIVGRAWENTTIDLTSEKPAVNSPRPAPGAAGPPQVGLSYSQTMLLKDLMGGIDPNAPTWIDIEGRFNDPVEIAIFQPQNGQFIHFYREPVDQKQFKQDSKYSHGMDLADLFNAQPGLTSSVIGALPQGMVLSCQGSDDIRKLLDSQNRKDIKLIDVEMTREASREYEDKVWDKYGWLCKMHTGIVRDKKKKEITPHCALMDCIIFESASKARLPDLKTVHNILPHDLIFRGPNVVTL
Assay Summary: qHTS for Inhibitors of the Functional Ribonucleoprotein Complex (vRNP) of Lymphocytic Choriomeningitis Arenaviruses (LCMV): LCMV Primary Screen - GLuc reporter signal (AID 1347086); further: nearly all actives have a fitted effect of over 70% in size
Test Settings: LCMV minigenome vRNP cell assay, Gaussia luciferase reporter; series mostly up to 57.5 µM
Results filed as inconclusive are left out. The source made the active and inactive calls. The call rests on the fitted dose curve.
Attribute Measured: outcome

Solved cases below.
{"Structure Smiles String": "C[N+](C)(CCOc1ccccc1)Cc1cccs1", "Result": "inactive"}
{"Structure Smiles String": "CCN(CC)CCOC(=O)c1ccc(N)cc1", "Result": "inactive"}
{"Structure Smiles String": "[N-]=[N+]=CC(=O)OC[C@H](N)C(=O)O", "Result": "inactive"}
{"Structure Smiles String": "CC(=O)Nc1ccc(CC(=O)O)cc1", "Result": "inactive"}
{"Structure Smiles String": "C[C@@H](N)[C@@H](O)c1ccccc1", "Result": "inactive"}

Report measured outcome; entry is CCC(CC)(CNC(=O)CCCO)c1cccc(OC)c1
inactive

Report measured outcome; entry is Cc1ccccc1C(=O)N1CC/C(=N\OS(=O)(=O)O)c2ccc(Cl)cc21
inactive

Report measured outcome; entry is NC(=O)CC[C@@H]1NC(=O)[C@H](Cc2ccccc2)NC(=O)[C@H](Cc2ccc(O)cc2)NC(=O)CCSSC[C@@H](C(=O)N2CCC[C@H]2C(=O)N[C@@H](CCCN=C(N)N)C(=O)NCC(N)=O)NC(=O)[C@H](CC(N)=O)NC1=O
inactive

Report measured outcome; entry is C[C@@H]1O[C@@H](OC[C@H]2O[C@@H](Oc3c(-c4ccc(O)c(O)c4)oc4cc(O)cc(O)c4c3=O)[C@H](O)[C@@H](O)[C@@H]2O)[C@H](O)[C@H](O)[C@H]1O
inactive
